Ref: ChEMBL document CHEMBL1144664

Experiment: Plasma clearance in Sprague-Dawley rat at 0.5 mg/kg, iv
Assay type: ADME, organism-based
Set-up: dose 0.5 mg/kg, route intravenous

>  <smiles_str>
Cn1c(C#N)ccc1-c1ccc2c(c1)C(C)(C)C(=O)N2

>  <clearance>
9 mL/min/kg

$$$$
>  <smiles_str>
Cn1c(C#N)ccc1-c1cc(F)c2c(c1)C(C)(C)C(=O)N2

>  <clearance>
4 mL/min/kg

$$$$

---

Test: AUC (0 to infinity) in cynomolgus monkey at 5 mg/kg, po
Format: ADME, organism-based, Macaca fascicularis
Set-up: dose 5 mg/kg, route oral, time infinity
Conditions: plasma

>  <smiles_str>
Cn1c(C#N)ccc1-c1cc(F)c2c(c1)C(C)(C)C(=O)N2

>  <unit_name>
ng·h/mL

>  <AUC(0-inf)>
5740

$$$$
